# Procedure text: amyloid nucleation score (Sup35N fusion, yeast selection) (log enrichment); library NNK1; higher = more nucleation; inactive = no reads after selection;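 further: zero at mode of non-aggregating sequences after 7 days selection at 30°C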
Short version: amyloid nucleation score at least 3 is TRUE, less is FALSE.

See these solved cases before continuing.
TRQYIEVSVNLCYIVVDKKN | FALSE
NCIGMFAIDLTKDQFRGDFR | FALSE
HAMISWDISNVCVYWHMCPW | FALSE
FFNCFLLDNNYVSLYLWSKD | TRUE
VITSVGWMLVYENQFTNLHL | TRUE
YFDRNFARYFCYRVTTT | FALSE

Kindly review the next substance as well.
Record FSMVAESRIEGILRFS ; criterion: amyloid nucleation score no lower than 3. Met? FALSE

* * *

# Procedure text: amyloid nucleation score (Sup35N fusion, yeast selection) (log enrichment); library NNK3; higher = more nucleation; inactive = no reads after selection
Measured parameter: amyloid nucleation score

# annotated cases, reported amyloid nucleation score shown
KKLHALESCA | inactive
TQDGELV | inactive
CYYTKVNVSS | 0.021
VQNNFGVSNAGNGLCWGCIC | 2.65

Quick batch: amyloid nucleation score for everything below.
1. TLYFYNTCLRQCKQYFIDFR
2. EILVVVPIAGEMSIVFMRGW
3. RIVSVFLDNEQISRNGAVSS
4. LVVSVCKK
5. MIVHWMVHSRLVHKAVVGDG
6. ALGCPGSQNLYFGSGSPAWS

0.305
inactive
-0.425
inactive
inactive
inactive

Look at each substance and report its amyloid nucleation score.
1. HRLCSHYVFTGCPSNMRQCF
2. YQMTNCSLFFTTLYSVNYDY
3. LFSNSLNFLIK
4. SHMEWFT
5. LFLRTEKIRFRSTRLVTLSC
6. NRFVIIFSCLCFCPQSDMEL
7. VKKLSKVHDSCGMREVLGCH
8. MWWGLAPIFWLLITTTDCGY

1: 0.083; 2: 2.81; 3: 0.679; 4: 1.92; 5: inactive; 6: 2.37; 7: -0.36; 8: inactive

* * *

# Procedure text: amyloid nucleation score (Sup35N fusion, yeast selection) (log enrichment); library NNK2; higher = more nucleation; inactive = no reads after selection
Binning scheme for amyloid nucleation score: bottom end (below -0.06), midrange (-0.06 to below 2), top end (2 or more)

Completed entries (count: 5):
TNLRAPEHHSHYCSRLRLD | bottom end
CKDTTKPGYFGFDIFPNVYE | top end
DGFSFIVRSFVWRNNHADAG | top end
IRSLFLVDYNRMIGMPKGMY | midrange
RLLNTAVLVANESNQNARDR | bottom end

Which band does IIYLIGLTRARHWCRLRYEL fall in? bottom end

Looking at VSWDISMNEVADWVVGAGGA , which class would you pick? midrange

* * *

# Procedure text: amyloid nucleation score (Sup35N fusion, yeast selection) (log enrichment); library NNK2; higher = more nucleation; inactive = no reads after selection
Measured parameter: amyloid nucleation score

Some entries whose results are on file:
HSSCIVVEAFSQGVVHNLFV | -0.567
TGLGLIGLHSLVKVSRV | -0.255
RWLDSERRTTRHLCSRGYST | 1.24
VILNYSRY | 4.5
LRYIFKMS | -1.34

Record amyloid nucleation score per entry; entries follow.
1. NRKWIDRLVYKGNNPYHGEV
2. YVSMLTNLTDLTSM
3. WINPFAQWMNSVQIFK
4. MTKCTDHVRVDDVCLHIRGS
5. KVRKYSEFSLQSQCDPLGRG
6. AYSGIFTRNAEVYSDIYLQ
7. YSASKFTWPCIKTSKCGALC

0.906
0.572
0.466
-0.255
0.455
-0.499
-1.09

* * *

I'd be grateful if you could share measured amyloid nucleation score for these entries.
# Procedure text: amyloid nucleation score (Sup35N fusion, yeast selection) (log enrichment); library NNK2; higher = more nucleation; inactive = no reads after selection

GGSLPMFWKIMPGRHCGK | -0.019
WWEVIRLSLRS | 2.04

Report amyloid nucleation score for each item below.
1. EGLQFRCLRNSEILVCGYFS
2. EFFALMDARVFVSVMLQEVD

[0.466, -0.268]

Give one value of amyloid nucleation score per listed sequence.
1. SIDEVGTANVPHGDW
2. KHCIIRFIKLGLGKKLKQPV
3. LKIQEPNRYW
4. LYYVMSPWLITSRAWDGSSS
5. YDLPFYAKEHGLPFVQWGNW
6. VYFLMLDY
7. NCHFTCMPAACGETVKTY

0.741
-1.02
-0.945
0.778
0.261
-0.526
0.597

Give a short answer stating reported amyloid nucleation score for YMSGILASIRKSILQGRSRE . -1.41

* * *

Assign amyloid nucleation score to each entry below.
# Procedure text: amyloid nucleation score (Sup35N fusion, yeast selection) (log enrichment); library NNK2; higher = more nucleation; inactive = no reads after selection
Answers are plain numbers.

Use these answered entries as a reference point.
IARRLTMGLTRMM | 1.56
FSNSPVISFGQ | -0.541
MLECVSALGKLGWFIQPVCL | -0.32
THVDFLWIVNLGGSHI | 7.52
VGSSHQSLEATKWGVVVLCR | 6.57

// for each substance in input: emit amyloid nucleation score
1. MIERMSNRGMACLFVETRSG
2. TMLEFNCSYLNI
3. MNFWILFQNLQHRCVQVTGR
4. YWSMSVMVNMKFPCGNCWVR
5. PSYPSVSRVK
6. HVAEEVMGIVARVRVLMILS
7. NYRRGEKNGVDVNLASKQCT

1: -0.149; 2: 2.98; 3: 3.64; 4: 2.24; 5: 0.151; 6: -0.598; 7: 0.86

I would be grateful if you could provide amyloid nucleation score for each of the following entries.
1. TFLYREVPLRRYR
2. DCLICFKDICNFENNEMIGA
3. LKCPALRSSSPNDLFVP
4. VLYLLKSSSFSTGVNSRCMR

0.135
-0.556
0.626
-0.256

* * *

So I've got a bunch of substances here, and I need their amyloid nucleation score values.
# Procedure text: amyloid nucleation score (Sup35N fusion, yeast selection) (log enrichment); library NNK2; higher = more nucleation; inactive = no reads after selection
Numbers only.

Sample records with amyloid nucleation score:
QSVYMFRKNNDFPRGTAGSQ | -0.883
RVRWYSCLVFMISTGFAFL | -0.702
YISMSMLGCLRTLREVHRDR | 3.21
ACLHFVSYSELAVFDFSFGK | 6.89
CTCTDTEDKWVKSGYSRGAH | 2.22

For the 3 substances below, give their amyloid nucleation score values.
1. SFGWDYVDPQLKNTCTHCRV
2. VLYFLYGKWQKTQRSNRYLQ
3. WTCAAFFEMDDRQGIVEIFI

1: -0.795; 2: -0.674; 3: 0.644

Provide reported amyloid nucleation score for each item, in the same order as listed.
1. GFIGNCYSFASLFGPMSHYV
2. ITHQRSSACIVGFILRRRCN
3. WILGKFTDKFRSSRHRRNRA
4. RPWLNRAFDVISYYAIMACR
5. VPLEYSRVI

[-0.588, -0.369, 0.787, 0.091, 2.15]

Quick request: amyloid nucleation score for each listed item, please.
1. ALFTLRVMLTTYYWQGMAEF
2. ALYCERCYWPV

1. 0.296
2. 0.092

Okay, here is my list. What is amyloid nucleation score for each of these?
1. HRFIILNIVAFE
2. TMSVDCWLCNLRMEMFLELY
3. DTRVSFRFMVTYLIMVYRFL
4. SLSPIYDDLASVVAGTYEIK

0.59
-1.54
0.774
-1.27

* * *

# Procedure text: amyloid nucleation score (Sup35N fusion, yeast selection) (log enrichment); library NNK2; higher = more nucleation; inactive = no reads after selection
# cutoff 1 applies to amyloid nucleation score; >= gives label 1, < gives label 0

Please review the entries below; each comes with its answer.
RLFTRANCIHFRERKVRKIH | label 0
RRFTINFKDK | label 0
SDIFRK | label 0
SMRSIREEAVFVLIVVLRGR | label 0
GDYYFV | label 0

amyloid nucleation score >= 1 for SEFGSNEYRDGLGVYYGST ? label 0

Could you verify whether the entry IVGNGRMCLRELSRFCFVRC shows amyloid nucleation score of no less than 1? label 1

Would you say CSVVTNGLLNMSSFPHVFCM shows amyloid nucleation score at minimum 1? label 1

Is amyloid nucleation score for LGMRLFRNVCYGLPSRSNRR at or above 1? label 1

// inclusive: amyloid nucleation score at least 1? input: FNYPSLFTF label 0

State whether the measured amyloid nucleation score reaches 1, counting equality as reaching it, for RIRHCGQFYSMHGKRRIATH label 1

Check the entry RMPVLSCDCRFFYVLSRVNE : does amyloid nucleation score equal or exceed 1? label 0

Reported amyloid nucleation score reaches at least 1 for TDLSLWNTILRVAG ? label 0

Item SLMDLT with amyloid nucleation score of 1 or above? label 0

Exam item: decide whether the reported amyloid nucleation score for VFTYLSSDFYTGWTMVNHIM is at least 1. label 0

State whether the measured amyloid nucleation score reaches 1, counting equality as reaching it, for FYMLASPSSTLDSTPKVRSC label 0

Hi team, for YNSMSVSILNVYYDQPWSLS , is the recorded amyloid nucleation score at or above 1? label 1

Item FDMLVNGHVIYRNRKSSSYI with amyloid nucleation score of 1 or above? label 0

Please tell me: is the substance WFHVAAYAFRGTCYHLGGVL at or over 1 in terms of amyloid nucleation score? label 1

Reported amyloid nucleation score at or above 1? DFYSNYILLRSSP label 0

Please check the record FMQICNFIC and state if its amyloid nucleation score is at or above 1. label 1

Evaluate NVWILNNYGQCIKS : amyloid nucleation score at minimum 1? label 1
